# target_entity: human Cystic Fibrosis Transmembrane Conductance Regulator (CFTR) harboring the ΔF508 mutation (Homo sapiens, UniProt P13569, DEL508-508)
# Sequence (P13569 with tags, fused parts or gaps DEL508-508): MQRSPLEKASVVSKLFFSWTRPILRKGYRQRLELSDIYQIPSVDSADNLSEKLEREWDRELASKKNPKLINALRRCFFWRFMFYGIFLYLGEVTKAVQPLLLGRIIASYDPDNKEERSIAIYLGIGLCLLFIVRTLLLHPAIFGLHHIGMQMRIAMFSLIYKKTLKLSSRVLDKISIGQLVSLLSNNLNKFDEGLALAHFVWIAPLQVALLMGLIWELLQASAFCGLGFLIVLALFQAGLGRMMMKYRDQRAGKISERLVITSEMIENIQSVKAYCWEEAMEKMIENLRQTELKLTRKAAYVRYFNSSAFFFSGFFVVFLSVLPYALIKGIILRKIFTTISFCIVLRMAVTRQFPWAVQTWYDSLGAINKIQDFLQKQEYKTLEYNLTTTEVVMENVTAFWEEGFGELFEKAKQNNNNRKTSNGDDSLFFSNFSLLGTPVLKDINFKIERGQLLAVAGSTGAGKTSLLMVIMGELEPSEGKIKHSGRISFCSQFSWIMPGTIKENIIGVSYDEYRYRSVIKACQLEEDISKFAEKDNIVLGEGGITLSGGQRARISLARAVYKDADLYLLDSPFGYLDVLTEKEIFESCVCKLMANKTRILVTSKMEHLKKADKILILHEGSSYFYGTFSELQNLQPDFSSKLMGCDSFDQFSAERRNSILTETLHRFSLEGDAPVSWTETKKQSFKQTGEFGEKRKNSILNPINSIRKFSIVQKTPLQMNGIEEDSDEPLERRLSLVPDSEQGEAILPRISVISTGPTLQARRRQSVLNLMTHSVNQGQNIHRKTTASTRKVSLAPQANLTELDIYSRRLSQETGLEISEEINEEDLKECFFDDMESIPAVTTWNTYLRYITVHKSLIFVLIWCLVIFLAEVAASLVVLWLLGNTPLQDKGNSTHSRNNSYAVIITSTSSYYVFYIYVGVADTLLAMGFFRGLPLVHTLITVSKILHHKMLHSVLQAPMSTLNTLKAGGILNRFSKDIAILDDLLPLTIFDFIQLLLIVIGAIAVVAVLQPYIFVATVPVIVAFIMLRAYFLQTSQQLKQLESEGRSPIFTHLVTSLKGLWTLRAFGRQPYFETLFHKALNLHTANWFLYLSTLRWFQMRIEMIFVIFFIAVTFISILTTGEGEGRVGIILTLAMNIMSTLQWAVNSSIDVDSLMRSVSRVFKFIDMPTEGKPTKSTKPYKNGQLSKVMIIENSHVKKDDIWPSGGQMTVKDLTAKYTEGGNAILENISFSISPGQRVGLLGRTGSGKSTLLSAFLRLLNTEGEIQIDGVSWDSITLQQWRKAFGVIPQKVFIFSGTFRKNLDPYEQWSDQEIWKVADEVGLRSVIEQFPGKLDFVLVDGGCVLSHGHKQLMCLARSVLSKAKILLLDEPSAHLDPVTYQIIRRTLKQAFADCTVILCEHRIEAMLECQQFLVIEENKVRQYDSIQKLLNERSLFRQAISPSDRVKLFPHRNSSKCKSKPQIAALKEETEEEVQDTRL
# method: H441 cell ΔF508-CFTR-HRP cell surface assay (Emax and EC50)
pEC50: −log10 of the molar value.
readout: pEC50

Here is how some compounds turned out for pEC50.
# compound, readout, observed
records = [
    ("CC(C)(C)C[C@H](NC(=O)c1ccc2ccccc2c1OCC1CCCCC1)C(=O)O [Example 201]", "pEC50", 5.39),
    ("O=C(N[C@H](C(=O)O)C(c1ccccc1)c1ccccc1)c1ccc2cc(F)ccc2c1OCc1ccc(Cl)c(Cl)c1 [Example 209]", "pEC50", 6.40),
    ("CCC(C)(C)[C@H](NC(=O)c1ccc2cc(C)ccc2c1OCc1ccc(C(F)(F)F)cc1)C(=O)O [Example 225]", "pEC50", 4.91),
    ("CCCC(C)(CC)[C@H](NC(=O)c1ccc2ccc(F)cc2c1OCc1ccc(OC(F)(F)F)cc1)C(=O)O (stereo partly drawn) [compound 290]", "pEC50", 6.70),
    ("O=C(N[C@@H](Cc1ccc(C(F)(F)F)cc1)C(=O)O)c1ccc2cc(F)ccc2c1OCc1ccc(Cl)c(Cl)c1 [Example 210]", "pEC50", 5.37),
    ("O=C(N[C@H](C(=O)O)C1CCCC1)c1ccc2ccccc2c1OCc1ccc(C(F)(F)F)cc1 [Example 154]", "pEC50", 5.72),
]

A. CC(Oc1c(C(=O)N[C@@H](Cc2ccccc2)C(=O)O)ccc2ccccc12)c1ccc(C(F)(F)F)cc1 (stereo partly drawn) [Example 124]
B. O=C(N[C@@H](Cc1ccc2c(c1)OCO2)C(=O)O)c1ccc2ccccc2c1OCc1ccc(C(F)(F)F)cc1 [Example 106]
Which has the higher pEC50, A or B ? Returns: label corresponding to the selected item.
A
(A: 5.89, B: 4.98)

A. CCC(C)(C)[C@H](NC(=O)c1ccc2ccc(C)cc2c1OCC1CCCCC1)C(=O)O [Example 281]
B. CC1(C(NC(=O)c2ccc3ccccc3c2OCc2ccc(C(F)(F)F)cc2)C(=O)O)CC1 (stereo not drawn) [Example 56]
C. N#Cc1ccc(C[C@H](NC(=O)c2ccc3ccccc3c2OCc2ccc(C(F)(F)F)cc2)C(=O)O)cc1 [Example 107]
Number of compounds to sort: 3. Sort criterion: pEC50, ascending. Answer by listing the labels in the order asked for.
C, B, A

Measured values drawn from patent US12630498B2 for this set.
